- target or test system: UcaD^LD (Proteus mirabilis)
- Sequence (B4EV65 entry or part of it): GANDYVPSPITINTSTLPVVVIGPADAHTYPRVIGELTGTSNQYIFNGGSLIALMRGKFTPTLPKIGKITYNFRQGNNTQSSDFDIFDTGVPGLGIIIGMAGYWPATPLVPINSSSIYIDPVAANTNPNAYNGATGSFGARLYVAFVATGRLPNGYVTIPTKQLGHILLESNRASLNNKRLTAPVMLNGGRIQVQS
- assay: Soaking of pre-formed UcaD^LD crystals with monosaccharides (X-ray crystallography)
- Type: binding, P. mirabilis PM54
- study conditions: 0.1-0.2 M monosaccharide, 48 hours soak
experimental readout: Monosaccharide electron density / binding in soaked UcaD^LD crystals

molecule	readout value
CC(=O)N[C@@H]1[C@@H](O)[C@H](O)[C@@H](CO)O[C@H]1O	not
CC(=O)N[C@H]1[C@H]([C@H](O)[C@H](O)CO)OC(O)(C(=O)O)C[C@@H]1O (stereo partly drawn)	not
